Source of measurements: ChEMBL document CHEMBL1201861

system: HD-MY-Z; assay: cells; format: functional, cell-based; conditions: Homo sapiens;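 further: growth inhibition of HD-MY-Z cells, read out with a cell viability assay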
Description: SANGER: Inhibition of human HD-MY-Z cell growth in a cell viability assay.
MEASURE: pIC50
Note on pIC50: it is the negative log10 of concentration, concentration in mol/L.

// query Entry Fc1cc(-c2cc[nH]/c(=N/c3ccc(-n4cnc(N5CCOCC5)n4)cc3)n2)cc(N2CCOCC2)c1 : reported pIC50 = ?
// result 5.94

// query Follow-up entry: C[C@]12O[C@H](C[C@]1(O)CO)n1c3ccccc3c3c4c(c5c6ccccc6n2c5c31)CNC4=O [LESTAURTINIB]
// result 7.86

// query Note, next up: CC(C)=CC[C@@H](O)C1=CC(=O)c2c(O)ccc(O)c2C1=O [SHIKONIN]
// result 6.33

----------
Answer each item with its documented pIC50.
tested on: MLMA; assay: cells; type: functional, cell-based; conditions: Homo sapiens;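 further: growth inhibition of MLMA cells (human), determined through a cell viability readout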
Description: SANGER: Inhibition of human MLMA cell growth in a cell viability assay.
pIC50: −log10 of the molar value.

// query Can you look up the measured pIC50 of O=c1[nH]c2ccccc2n1C1CCN(Cc2ccc(-c3nc4cc5[nH]cnc5cc4nc3-c3ccccc3)cc2)CC1 for me?
// result < 5.59

// query And CC(=O)c1c(C)c2cnc(Nc3ccc(N4CCNCC4)cn3)nc2n(C2CCCC2)c1=O ?
// result < 5.40

// query Another compound to look at: C[C@]1(c2nc3c(C(N)=O)cccc3[nH]2)CCCN1
// result < 5.30

// query Another compound to check: Cc1ccc(NC(=O)c2cccc(C(C)(C)C#N)c2)cc1Nc1ccc2ncn(C)c(=O)c2c1
// result < 5.40

----------
Kindly supply the reported pIC50 values for the records listed here.
tested on: BT-474; experiment: cells; assay type: functional, cell-based; details: Homo sapiens
Description: SANGER: Inhibition of human BT-474 cell growth in a cell viability assay.
pIC50: −log10 of the molar value.

// query Can you share its pIC50? I mean this compound: CC(O)(CS(=O)(=O)c1ccc(F)cc1)C(=O)Nc1ccc(C#N)c(C(F)(F)F)c1 (centres undefined) [BICALUTAMIDE]
// result < 5.99

// query And the next one, Cc1nc(Nc2ncc(C(=O)Nc3c(C)cccc3Cl)s2)cc(N2CCN(CCO)CC2)n1 [DASATINIB] ?
// result < 5.89

// query Field entry: Cn1cc(/C=C2\C(=O)Nc3cccnc32)c2ccccc21
// result < 5.70

// query Then what about the compound O=c1cc(N2CCOCC2)oc2c(-c3cccc4c3sc3ccccc34)cccc12 ?
// result < 5.70

----------
system: KG-1; test: cells; type: functional, cell-based; conditions: Homo sapiens;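 further: growth inhibition of KG-1 cells, read out by a cell viability assay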
Description: SANGER: Inhibition of human KG-1 cell growth in a cell viability assay.
pIC50: −log10 of the molar value.
MEASURE: pIC50

// query Item Cc1n[nH]c2ccc(-c3cncc(OC[C@@H](N)Cc4c[nH]c5ccccc45)c3)cc12 has what recorded pIC50?
// result < 5.99

// query Same question, C/C(O)=C(\C#N)C(=O)Nc1cc(Br)ccc1Br this time
// result < 4.80

// query Query N#C/C(=C1/Nc2ccccc2S1)c1ccnc(NCCc2cccnc2)n1 next
// result < 5.10

----------
system: ES7; test: cells; type: functional, cell-based; conditions: Homo sapiens;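 further: growth inhibition of cultured human ES7 cells, read out as cell viability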
Description: SANGER: Inhibition of human ES7 cell growth in a cell viability assay.
Consider the following compounds; for each one, report its pIC50.
pIC50 field: float, defined as -log10 of concentration (mol/L).

// query pIC50 lookup needed for Fc1cc(-c2cc[nH]/c(=N/c3ccc(-n4cnc(N5CCOCC5)n4)cc3)n2)cc(N2CCOCC2)c1 , thanks.
// result 6.49

// query Quick one: CC[C@]1(O)C[C@@H]2CN(CCc3c([nH]c4ccccc34)[C@@](C(=O)OC)(c3cc4c(cc3OC)N(C)[C@H]3[C@@](O)(C(=O)OC)[C@H](OC(C)=O)[C@]5(CC)C=CCN6CC[C@]43[C@@H]65)C2)C1
// result 8.24
